Just for reference, patent US20160002248A1 is where these values come from.

IC50 values for the molecules below.
Target: purified recombinant human GAC (GLS1) (Homo sapiens)
Sequence (O94925 55-598 isoform O94925-3 limits assumed): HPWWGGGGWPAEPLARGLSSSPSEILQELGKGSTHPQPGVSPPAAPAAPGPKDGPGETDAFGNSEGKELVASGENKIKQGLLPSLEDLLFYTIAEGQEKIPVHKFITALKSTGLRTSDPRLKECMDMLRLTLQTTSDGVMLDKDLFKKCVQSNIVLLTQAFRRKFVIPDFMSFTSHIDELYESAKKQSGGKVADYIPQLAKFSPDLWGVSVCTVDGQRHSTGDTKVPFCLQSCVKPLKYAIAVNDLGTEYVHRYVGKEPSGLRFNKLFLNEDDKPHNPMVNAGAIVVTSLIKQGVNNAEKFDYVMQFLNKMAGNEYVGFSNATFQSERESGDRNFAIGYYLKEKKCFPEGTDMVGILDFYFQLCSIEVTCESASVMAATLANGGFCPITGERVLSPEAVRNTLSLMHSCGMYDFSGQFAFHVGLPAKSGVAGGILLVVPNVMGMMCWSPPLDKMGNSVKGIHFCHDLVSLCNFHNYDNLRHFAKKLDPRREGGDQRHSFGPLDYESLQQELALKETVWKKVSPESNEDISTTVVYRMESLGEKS
Assay: GLS1 Enzymatic Activity Assay (dual-coupled enzymatic assay)
Protocol: GLS1 Enzymatic Activity Assay The inhibition of purified recombinant human GAC by varying concentrations of inhibitors is assessed via a dual-coupled enzymatic assay. […] The production of resorufin was monitored on a Perkin Elmer Envision plate reader (excitation 530 nm, emission 590 nm) either in a kinetics or endpoint mode (at 20 minutes). IC50 values were calculated using a four-parameter logistic curve fit.
quantityKind: IC50

>>> result("O=C(NCc1cccnc1)c1nnc(CCCCc2cc3cc(Cc4ccccc4)[nH]c3nn2)s1 [Example 76]")
"< 0.1 µM"
>>> result("Cc1ccncc1CNC(=O)c1cn(CCCCc2cc3cc(C4CC4)[nH]c3nn2)nn1 [Example 47]")
"0.1 to 0.5 µM"
>>> result("O=C(NCc1ccccn1)c1cn(CCCCc2cc3cc(C4(O)COC4)[nH]c3nn2)nn1 [Example 21]")
"0.1 to 0.5 µM"
>>> result("Cc1ccc(CNC(=O)c2cn(CCCCc3cc4cc(C5CN(C(=O)OC(C)(C)C)C5)[nH]c4nn3)nn2)cn1 [Example 94]")
"< 0.1 µM"
>>> result("O=C(NCc1cccc(OC(F)(F)F)c1)c1cn(CCCCc2cc3c(C4=CCOCC4)c(C4CC4)[nH]c3nn2)nn1 [Example 195]")
"< 0.1 µM"
>>> result("O=C(NCc1cccc(C(F)(F)F)n1)c1cn(CCCCc2cc3c(C4CC4)c(C4CC4)[nH]c3nn2)nn1 [Example 211]")
"< 0.1 µM"
>>> result("O=C(NCc1cc(OC(F)(F)F)ccc1F)c1cn(CCCCc2cc3cc(C4CN(C(=O)C5COC5)C4)[nH]c3nn2)nn1 [Example 235]")
"< 0.1 µM"
